Source of measurements: paper PMC10222203

assay: Simulation of unbound brain exposure (two-compartment model, Berkeley Madonna); parameters: species or system rat; details: parameter used in simulation, rat weight 0.3 kg; read-out: Systemic clearance, CL (converted)
RESULT TYPE: clearance (mL/min)
The reply should contain only the number, in mL/min.

The compound listed as CC[C@H](C)[C@@H]1NC(=O)[C@@H]2CCCN2C(=O)[C@@H]2CCCN2C(=O)[C@H]([C@@H](C)CC)NC(=O)[C@H](CO)NC(=O)[C@H](CCCCN)NC(=O)[C@H]([C@@H](C)O)NC(=O)[C@@H]2CSSC[C@H](NC1=O)C(=O)N[C@@H](Cc1ccccc1)C(=O)N1CCC[C@H]1C(=O)N[C@@H](CC(=O)O)C(=O)NCC(=O)N[C@@H](CCCNC(=N)N)C(=O)N2 [SFTI-1, sunflower trypsin inhibitor-1] shows clearance equal to 0.545

---

assay: in vitro; settings: rat, undiluted plasma, pH 7.4, Fraction unbound in plasma, fu,plasma, equilibrium dialysis 6 h 37 °C
RESULT TYPE: fraction unbound at 6 h, 1 µM
Enter a number only.

Notebook: CC[C@H](C)[C@@H]1NC(=O)[C@@H]2CCCN2C(=O)[C@@H]2CCCN2C(=O)[C@H]([C@@H](C)CC)NC(=O)[C@H](CO)NC(=O)[C@H](CCCCN)NC(=O)[C@H]([C@@H](C)O)NC(=O)[C@@H]2CSSC[C@H](NC1=O)C(=O)N[C@@H](Cc1ccccc1)C(=O)N1CCC[C@H]1C(=O)N[C@@H](CC(=O)O)C(=O)NCC(=O)N[C@@H](CCCNC(=N)N)C(=O)N2 [SFTI-1, sunflower trypsin inhibitor-1] , fraction unbound at 6 h, 1 µM read as 0.94

---

conditions: rat, Kp,uu,cell, mean values across experimental conditions, brain slices; 4 °C, inhibition of endocytosis, or dissipation of the pH gradient
RESULT TYPE: Kp uu

Kp uu measured on CC[C@H](C)[C@@H]1NC(=O)[C@@H]2CCCN2C(=O)[C@@H]2CCCN2C(=O)[C@H]([C@@H](C)CC)NC(=O)[C@H](CO)NC(=O)[C@H](CCCCN)NC(=O)[C@H]([C@@H](C)O)NC(=O)[C@@H]2CSSC[C@H](NC1=O)C(=O)N[C@@H](Cc1ccccc1)C(=O)N1CCC[C@H]1C(=O)N[C@@H](CC(=O)O)C(=O)NCC(=O)N[C@@H](CCCNC(=N)N)C(=O)N2 = 0.3 to 0.47

---

test: in vitro; conditions: rat, brain homogenate (1 part brain with 4 parts PBS), pH 7.4
RESULT TYPE: fraction unbound at 6 h, 1 µM
Number only, please.

Documented fraction unbound at 6 h, 1 µM of CC[C@H](C)[C@@H]1NC(=O)[C@@H]2CCCN2C(=O)[C@@H]2CCCN2C(=O)[C@H]([C@@H](C)CC)NC(=O)[C@H](CO)NC(=O)[C@H](CCCCN)NC(=O)[C@H]([C@@H](C)O)NC(=O)[C@@H]2CSSC[C@H](NC1=O)C(=O)N[C@@H](Cc1ccccc1)C(=O)N1CCC[C@H]1C(=O)N[C@@H](CC(=O)O)C(=O)NCC(=O)N[C@@H](CCCNC(=N)N)C(=O)N2 : 0.951

---

assay: Simulation of unbound brain exposure (two-compartment model, Berkeley Madonna); parameters: species or system rat; conditions: rat, parameter used in simulation, rat weight 0.3 kg; read-out: Apparent volume of distribution, Vd
RESULT TYPE: Vd (L)
Numeric only. Scale: L

compound CC[C@H](C)[C@@H]1NC(=O)[C@@H]2CCCN2C(=O)[C@@H]2CCCN2C(=O)[C@H]([C@@H](C)CC)NC(=O)[C@H](CO)NC(=O)[C@H](CCCCN)NC(=O)[C@H]([C@@H](C)O)NC(=O)[C@@H]2CSSC[C@H](NC1=O)C(=O)N[C@@H](Cc1ccccc1)C(=O)N1CCC[C@H]1C(=O)N[C@@H](CC(=O)O)C(=O)NCC(=O)N[C@@H](CCCNC(=N)N)C(=O)N2 , Vd observed: 0.0573

---

Test: in vivo
Details: rat, plasma, iv, 0.5 mg/kg, Half-life, t½, 10 min intravenous infusion
Method: Since previous pharmacokinetic data were extremely sparse, a pilot study was performed in rats (n = 2), and simulations were performed in Berkeley Madonna (version 8.3.18 for Windows, Berkeley, CA, USA), defining suitable dose and sampling intervals from the parameters obtained in the pilot study. […]
RESULT TYPE: half-life (min)
# output: bare number, implied unit min

Item: CC[C@H](C)[C@@H]1NC(=O)[C@@H]2CCCN2C(=O)[C@@H]2CCCN2C(=O)[C@H]([C@@H](C)CC)NC(=O)[C@H](CO)NC(=O)[C@H](CCCCN)NC(=O)[C@H]([C@@H](C)O)NC(=O)[C@@H]2CSSC[C@H](NC1=O)C(=O)N[C@@H](Cc1ccccc1)C(=O)N1CCC[C@H]1C(=O)N[C@@H](CC(=O)O)C(=O)NCC(=O)N[C@@H](CCCNC(=N)N)C(=O)N2 | half-life: 20

---

settings: rat, Unbound intracellular-to-extracellular (interstitial) concentration ratio, Kp,uu,cell, brain slices 37 °C; fu,brain × Vu,brain
RESULT TYPE: Kp uu
Write no unit; give the number alone.

Entry CC[C@H](C)[C@@H]1NC(=O)[C@@H]2CCCN2C(=O)[C@@H]2CCCN2C(=O)[C@H]([C@@H](C)CC)NC(=O)[C@H](CO)NC(=O)[C@H](CCCCN)NC(=O)[C@H]([C@@H](C)O)NC(=O)[C@@H]2CSSC[C@H](NC1=O)C(=O)N[C@@H](Cc1ccccc1)C(=O)N1CCC[C@H]1C(=O)N[C@@H](CC(=O)O)C(=O)NCC(=O)N[C@@H](CCCNC(=N)N)C(=O)N2 ; Kp uu = 0.415
